Target chain: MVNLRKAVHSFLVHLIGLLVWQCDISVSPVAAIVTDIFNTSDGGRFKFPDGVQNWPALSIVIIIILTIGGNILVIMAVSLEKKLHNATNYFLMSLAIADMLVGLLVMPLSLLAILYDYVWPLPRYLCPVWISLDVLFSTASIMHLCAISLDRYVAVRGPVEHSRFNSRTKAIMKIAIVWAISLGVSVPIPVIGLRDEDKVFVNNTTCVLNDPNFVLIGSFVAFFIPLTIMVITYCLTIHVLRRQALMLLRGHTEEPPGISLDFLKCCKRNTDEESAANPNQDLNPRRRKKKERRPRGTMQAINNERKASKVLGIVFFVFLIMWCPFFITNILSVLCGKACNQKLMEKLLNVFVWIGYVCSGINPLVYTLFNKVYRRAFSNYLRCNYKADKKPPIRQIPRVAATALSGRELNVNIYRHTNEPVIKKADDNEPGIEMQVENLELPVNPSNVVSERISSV
pKi: −log10 of the molar value.
System: the protein given by its sequence | Read-out: pKi | Origin: multiple publications
Kindly return 1 (yes) if reported pKi is no lower than 6; return 0 (no) if it is lower.

• c1ccc2c(c1)CC(N1CCN(c3cccc4c3OCCO4)CC1)C2 = 1 (yes)
• CSc1ccc2c(c1)C(N1CCN(C)CC1)Cc1ccccc1S2 (stereo unspecified) = 1 (yes)
• COc1ccc(NC(=O)c2ccc(-c3ccc(-c4noc(C)n4)cc3C)cc2)cc1N1CCN(C)CC1 = 1 (yes)
• N=C(N)NC(=O)c1nc(Cl)c(N2CCCCCC2)nc1N = 0 (no)
• CN1CCC(=C2c3ccccc3CCc3sccc32)CC1 = 1 (yes)

For this compound, is measured pKi 6 or higher? "O=C(c1ccc(F)cc1)C1CCN(CCn2c(=O)[nH]c3ccccc3c2=O)CC1"
1 (yes)

For this compound, is measured pKi 6 or higher? "CCN(CC)CCOC(=O)c1cc(Cl)c(N)cc1OC"
0 (no)

For this compound, is measured pKi 6 or higher? "NC(=NCc1ccccc1)NC(=O)c1nc(Cl)c(N)nc1N"
0 (no)

For this compound, is measured pKi 6 or higher? "COc1ccccc1N1CCN(CCN2C(=O)CC3(CCCC3)CC2=O)CC1"
1 (yes)
